Settings: in diisobutyl methanol, 319.15 K
Reported metric: solubility (mole fraction)

[
  {
    "Structure": "CCc1ccc2c(c1)C(=O)c1ccccc1C2=O",
    "Reported metric": "solubility (mole fraction)",
    "Value observed": 0.0787
  }
]

----------
Settings: in diisobutyl methanol, 344.15 K

[
  {
    "Structure": "CCc1ccc2c(c1)C(=O)c1ccccc1C2=O",
    "solubility (mole fraction)": 0.199
  }
]

----------
Conditions: in 2-phenylethanol, 319.15 K
Reported metric: solubility (mole fraction)

[
  {
    "Structure": "CCc1ccc2c(c1)C(=O)c1ccccc1C2=O",
    "Reported metric": "solubility (mole fraction)",
    "Value observed": 0.176
  }
]
